SYSTEM UNDER TEST: Cannabinoid receptor 2 (Homo sapiens)
TEST SUMMARY: Displacement of [3H]CP-55940 from human CB2 receptor expressed in CHO cells
The label yes is reserved for IC50 strictly under 80 nM; no covers values equal to or above it.

IC50 strictly < 80 nM for this molecule? Cc1c(C(C)(C)C)s/c(=N\S(=O)(=O)c2ccccc2)n1C
no

A record lists Cc1c(C(C)(C)C)s/c(=N\S(=O)(=O)c2cccc3ccccc23)n1CC1CC1 . Is its IC50 below 80 nM?
yes

IC50 under 80 nM? Item: C#CCn1c(C)c(C(C)(C)C)s/c1=N\S(=O)(=O)c1ccccc1
no

State whether 80 nM exceeds IC50 recorded for CC(C)=CCn1c(C)c(C(C)(C)C)s/c1=N\S(=O)(=O)c1ccccc1 .
no

Is IC50 of Cc1c(C(C)(C)C)s/c(=N\S(=O)(=O)c2ccc3ccccc3c2)n1CC1CC1 strictly below 80 nM?
no

Problem: For the molecule C=CCn1c(C)c(C(C)(C)C)s/c1=N\S(=O)(=O)c1ccccc1 , is IC50 under 80 nM?
yes

Input Cc1c(C(C)(C)C)s/c(=N\S(=O)(=O)c2ccccc2)n1CC1CC1 ; condition: IC50 strictly below 80 nM. Does it hold?
yes

* * *

I'd be grateful if you could share measured EC50 for these entries.
SYSTEM UNDER TEST: Cannabinoid receptor 2 (Homo sapiens, UniProt P34972)
Sequence (P34972 whole entry): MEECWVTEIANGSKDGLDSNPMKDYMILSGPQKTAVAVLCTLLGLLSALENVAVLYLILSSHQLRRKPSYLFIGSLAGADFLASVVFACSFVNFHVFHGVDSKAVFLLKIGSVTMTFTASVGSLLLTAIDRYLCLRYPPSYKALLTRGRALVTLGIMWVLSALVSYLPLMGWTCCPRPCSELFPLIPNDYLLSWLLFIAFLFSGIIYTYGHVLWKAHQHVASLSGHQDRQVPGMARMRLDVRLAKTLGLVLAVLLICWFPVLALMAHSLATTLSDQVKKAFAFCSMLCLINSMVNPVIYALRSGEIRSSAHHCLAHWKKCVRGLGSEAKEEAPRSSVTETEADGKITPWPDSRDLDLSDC
TEST SUMMARY: Agonist activity at human CB2 receptor expressed in CHO cells by [35S]GTP-gamma-S binding assay
Type: functional, cell-based
# value in µM; strip the unit string

Given item Cc1c(C(C)(C)C)s/c(=N\S(=O)(=O)c2cccc3ccccc23)n1CC1CC1 , the value recorded as its EC50 is 0.0072

Input Cc1c(C(C)(C)C)s/c(=N\S(=O)(=O)c2ccccc2)n1C . Output EC50: 0.11
